Assay: Approximate solubility determination by adding aliquots of solvent
Type: physicochemical
Details: organic solvent or mixture, thermodynamic from solid; 1,2-Dimethoxyethane (SAS6)
endpoint-label: solubility

CN1CCN(Cc2ccc(-c3cnc(N4CCOC(Cn5nnc6ncc(-c7cnn(C)c7)nc65)C4)nc3)cc2)CC1 (stereo not shown): 12.7 to 13.8 mg/mL

----------
Test: Approximate solubility determination by adding aliquots of solvent
Type: physicochemical
Details: organic solvent or mixture, thermodynamic from solid; Methanol (SAS8)
endpoint-label: solubility

CN1CCN(Cc2ccc(-c3cnc(N4CCOC(Cn5nnc6ncc(-c7cnn(C)c7)nc65)C4)nc3)cc2)CC1 (stereo not shown) [ABN-401]: < 2900 µg/mL

----------
Assay: Approximate solubility determination by adding aliquots of solvent
Assay type: physicochemical
Conditions: organic solvent or mixture, thermodynamic from solid; 1,4-Dioxane (SAS4)
endpoint-label: solubility

CN1CCN(Cc2ccc(-c3cnc(N4CCOC(Cn5nnc6ncc(-c7cnn(C)c7)nc65)C4)nc3)cc2)CC1 (stereo not shown): > 199 mg/mL

----------
Test: Approximate solubility determination by adding aliquots of solvent
Format: physicochemical
Details: organic solvent or mixture, thermodynamic from solid; Acetone (SAS1)
Procedure: The approximate solubility was determined by adding small aliquots of solvent (50 μL up to 1 mL, 100 μL above 1 mL) to the solid starting material until complete dissolution was observed or a maximum volume of 4 mL was reached. Afterwards the solvents were evaporated and obtained solids were analyzed by HT-XRPD.
endpoint-label: solubility

CN1CCN(Cc2ccc(-c3cnc(N4CCOC(Cn5nnc6ncc(-c7cnn(C)c7)nc65)C4)nc3)cc2)CC1 (stereo not shown): 22.1 to 25.6 mg/mL

----------
Assay: Approximate solubility determination by adding aliquots of solvent
Assay type: physicochemical
Settings: organic solvent or mixture, thermodynamic from solid; Tetrahydrofuran (SAS9)
endpoint-label: solubility

CN1CCN(Cc2ccc(-c3cnc(N4CCOC(Cn5nnc6ncc(-c7cnn(C)c7)nc65)C4)nc3)cc2)CC1 (stereo not shown): > 181 mg/mL
